molecular target: CCR-3 (Homo sapiens, UniProt P51677); experiment: Eotaxin-induced chemotaxis of CCR-3 transfectant cells (CCR3/U937); type: cell-based; design: expressed in transfected cells; host or cells: U937; conditions: 10 µM test compound; eotaxin 1 x 10^-9 M; CCR3/U937 cells (Table 3a)
Sequence (P51677 whole entry): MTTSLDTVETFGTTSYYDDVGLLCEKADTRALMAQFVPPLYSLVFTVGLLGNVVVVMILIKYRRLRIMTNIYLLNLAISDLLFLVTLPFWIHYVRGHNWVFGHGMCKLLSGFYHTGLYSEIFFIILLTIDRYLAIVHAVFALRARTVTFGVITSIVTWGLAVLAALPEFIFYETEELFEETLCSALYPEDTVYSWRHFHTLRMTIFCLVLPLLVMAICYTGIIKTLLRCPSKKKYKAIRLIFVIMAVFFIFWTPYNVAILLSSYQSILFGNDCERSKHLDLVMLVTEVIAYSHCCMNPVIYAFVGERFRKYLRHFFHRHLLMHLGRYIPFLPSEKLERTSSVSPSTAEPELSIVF
Property: Chemotaxis Assay 10 µM (inhibition %)

In the examples that follow, each entry is paired with its recorded Chemotaxis Assay 10 µM (inhibition %).
COC(=O)CCCN(CCCNC(=O)Nc1cccc(Cl)c1)C1CCCc2ccccc21 (stereo not drawn) [Compound 51] :: 100
COC(=O)CCCN(CCCNC(=O)Nc1ccc(Cl)c(C(F)(F)F)c1)C1CCCc2ccccc21 (stereo not drawn) [Compound 53] :: 93
COC(=O)CN(CCCNC(=O)Nc1ccccc1)CCc1ccc(Cl)cc1 [Compound 245] :: 100
CC(C)(c1ccccc1)N(CCCNC(=O)Nc1ccccc1Br)CCCC(=O)O [Compound 195] :: 100
COC(=O)CCCN(CCCNC(=O)Nc1ccc(Br)cc1)C(C)(C)Cc1ccccc1 [Compound 206] :: 64

A = O=C(O)CCCN(CCCNC(=O)Nc1cccc(Br)c1)C1CCCc2ccccc21 (stereo not drawn) [Compound 199]
B = O=C(NCCCN(CCc1cccc(Cl)c1)Cc1ccccc1)Nc1ccccc1 [Compound 280]
// compare measured Chemotaxis Assay 10 µM (inhibition %) between A and B ; output the lower one Bench note: the answer is the label of the chosen record.
B

====

target: CCR-3 (Homo sapiens); assay: Eotaxin-induced chemotaxis of CCR-3 transfectant cells (CCR3/U937); format: cell-based; parameters: expressed in transfected cells; host or cells: U937; details: test compound 0.1 µg/ml; eotaxin 1 x 10^-9 M; CCR3/U937 transfectants; 37 °C, 1 hour
Property: Chemotaxis Assay 0.1 µg/ml (inhibition %)

CC[N+](CCCNC(=O)Nc1ccc(C(F)(F)F)cc1)(CCOCCOC)CCc1ccc(Cl)cc1Cl.[I-] (stereo not shown) :: 56
CC[N+](CCCNC(=O)Nc1ccccc1)(CCc1ccc(Cl)cc1Cl)CC1CCC1.[I-] (stereo not shown) :: 76
CCC(CC)C[N+](CC)(CCCNC(=O)Nc1ccc(Br)cc1)CCc1ccc(Cl)c(Cl)c1.[I-] (stereo not shown) :: 46

a = CC[N+](CCF)(CCCNC(=O)Nc1ccc(OC)cc1)CCc1ccc(Cl)cc1Cl.[I-] (stereo not shown)
b = CC[N+](CCCNC(=O)Nc1ccccc1)(CCOCCOC)CCc1ccc(Cl)cc1Cl.[I-] (stereo not shown)
Field: lower recorded Chemotaxis Assay 0.1 µg/ml (inhibition %) (choose a or b ) Identify your selection by its label.
a
(a: 59%, b: 98%)

I = CCC(CC)C[N+](CC)(CCCNC(=O)Nc1ccccc1)CCc1ccc(Cl)cc1Cl.[I-] (stereo not shown)
II = CC[N+](CCF)(CCCNC(=O)Nc1ccccc1)CCc1ccc(Cl)c(Cl)c1.[I-] (stereo not shown)
Form: Entry with minimum Chemotaxis Assay 0.1 µg/ml (inhibition %) (choose one): I / II Could you answer with the label of the item you picked?
I
(I: 64%, II: 100%)

P = CC[N+](CCF)(CCCNC(=O)Nc1ccc(C#N)cc1)CCc1c(Cl)cccc1Cl.[I-] (stereo not shown)
Q = CC[N+](CCF)(CCCNC(=O)Nc1ccccc1)CCc1cccc(Cl)c1.[I-] (stereo not shown)
I'm curious whether P or Q has the smaller Chemotaxis Assay 0.1 µg/ml (inhibition %) number. Which is it? Lab note: record the label of whichever item you select.
P

====

target: CCR-3 (Homo sapiens, UniProt P51677); assay: Eotaxin-induced chemotaxis of CCR-3 transfectant cells (CCR3/U937); format: cell-based; design: expressed in transfected cells; host or cells: U937; settings: 6.25 µg/ml test compound; eotaxin 1 x 10^-9 M; CCR3/U937 cells (Table 3b)
Property: CCR-3 Transfectant Chemotaxis Assay 6.25 µg/ml (inhibition %)

Examples with their reported CCR-3 Transfectant Chemotaxis Assay 6.25 µg/ml (inhibition %) follow.
CCOC(=O)C1CC1CN(CCCNC(=O)Nc1cccc(C)c1)CCc1ccccc1 (stereo not drawn) [Compound 138] :: 31
O=C(NCCCN(CCc1ccccc1)CCc1ccc(Cl)c(Cl)c1)Nc1ccccc1-c1ccccc1 [Compound 114] :: 22
CSCCCN(CCCNC(=O)Nc1ccccc1-c1ccccc1)Cc1ccc2c(c1)OCO2 [Compound 100] :: 54
CC(C)CN(CCCNC(=O)Nc1ccc(Br)cc1)CCc1c[nH]cn1 [Compound 118] :: 62
Cc1ccc(CCN(CCCNC(=O)Nc2ccc(Br)cc2)CCCC(=O)O)cc1 [Compound 132] :: 11

P = O=C(O)CCCN(CCCNC(=O)Nc1ccc(Br)cc1)CCc1ccc(Cl)c(Cl)c1 [Compound 133]
Q = CC(C)CCN(CCCNC(=O)Nc1ccccc1-c1ccccc1)Cc1ccc2c(c1)OCO2 [Compound 99]
Which of the two gives a bigger number for CCR-3 Transfectant Chemotaxis Assay 6.25 µg/ml (inhibition %): P or Q ? // respond with label for picked entry
Q

P = CCOC(=O)C1CC1CN(CCCNC(=O)Nc1ccccc1-c1ccccc1)CCc1ccc(C)cc1 (stereo not drawn) [Compound 112]
Q = CCN(CCCNC(=O)Nc1cccc(C)c1)CCc1ccccc1 [Compound 137]
Which one would you say has the larger CCR-3 Transfectant Chemotaxis Assay 6.25 µg/ml (inhibition %) value: P , or Q ? Reply with the label of the item you choose.
Q
(Q: 40%, P: 26%)

A = CC(C)CN(CCCNC(=O)Nc1ccccc1-c1ccccc1)CCc1ccc(Cl)c(Cl)c1 [Compound 113]
B = O=C(NCCCN(Cc1ccc2c(c1)OCO2)C[C@@H]1CCCN1)Nc1ccccc1-c1ccccc1 [Compound 102]
When their CCR-3 Transfectant Chemotaxis Assay 6.25 µg/ml (inhibition %) values are compared, which is larger, A or B ? API: response body contains the label of the selected item.
A

A = COC(=O)CCCN(CCCNC(=O)Nc1ccccc1-c1ccccc1)CCc1ccccc1 [Compound 106]
B = CCOC(=O)C1CC1CN(CCCNC(=O)Nc1ccc(Br)cc1)C1CCCc2ccccc21 (stereo not drawn) [Compound 125]
C = CCOC(=O)C1CC1CN(CCCNC(=O)Nc1ccccc1-c1ccccc1)CCc1ccc(OC)c(OC)c1 (stereo not drawn) [Compound 109]
I would appreciate it if you could sort these 3 compounds by CCR-3 Transfectant Chemotaxis Assay 6.25 µg/ml (inhibition %), starting from the smallest number. Could you list the labels in the order requested?
C, A, B
(C: 12%, A: 47%, B: 90%)

====

biological target: CCR-3 (Homo sapiens); test: Calcium mobilization assay (inhibition of eotaxin-induced intracellular calcium mobilization in CCR3/HEK293 cells); type: cell-based; parameters: expressed in transfected cells; conditions: 1.25 µg/ml test compound; eotaxin 10 nM; CCR3/HEK293 cells (Table 2b)
Property: Ca^2+ mobilization 1.25 µg/ml (inhibition %)

CC[N+](CCCNC(=O)Nc1ccc(OC)cc1)(CCc1cccc(Cl)c1)CCC(C)C.[I-] (stereo not shown) :: 62
CC[N+](CCCNC(=O)Nc1ccc(OC)cc1)(CCc1cccc(Cl)c1)CC1CCC1.[I-] (stereo not shown) :: 71
CC[N+](CCCNC(=O)Nc1ccc(Cl)c(Cl)c1)(CCOCCOC)CCc1ccc(Cl)cc1Cl.[I-] (stereo not shown) :: 57
CC[N+](CCCNC(=O)Nc1ccc(Cl)c(Cl)c1)(CCOCCOC)CCc1cccc(Cl)c1.[I-] (stereo not shown) :: 57

====

Target: CCR-3 (Homo sapiens, UniProt P51677)
Test: Eotaxin-induced chemotaxis of CCR-3 transfectant cells (CCR3/U937)
Format: cell-based
Parameters: expressed in transfected cells; host or cells: U937
Conditions: 10 µM test compound; eotaxin 1 x 10^-9 M; CCR3/U937 cells (Table 3a)
Description: The inhibitory activity of the compounds against eotaxin-induced chemotaxis was determined by measuring the inhibition of migration of CCR-3 transfectant cells (CCR3/U937), using a minor modification of the method described by Ohashi, H. et al., Int Arch Allergy Immunol. […] The chemotaxis assay was performed in a 24-well culture plate. […] After incubation, migrated cells in lower wells were diluted and counted by particle size distribution analyzer (CDP-500, Sysmex Co., Ltd.).
Property: Chemotaxis Assay 10 µM (inhibition %)

Cc1cccc(NC(=O)NCCCN(CCCC(=O)O)C2CCCc3ccccc32)c1 (centres unmarked) :: 100
O=C(O)CCCN(CCCNC(=O)Nc1cccc2ccccc12)C1CCCc2ccccc21 (centres unmarked) :: 100

A = COCCN(CCCNC(=O)Nc1ccccc1)CCc1ccc(Cl)cc1
B = CC(=O)c1cccc(NC(=O)NCCCN(CCCC(=O)O)C2CCCc3ccccc32)c1 (centres unmarked)
Which value of Chemotaxis Assay 10 µM (inhibition %) is smaller, the one for A or the one for B ? I would appreciate it if you answered with the label of your choice.
B

====

target: CCR-3 (Homo sapiens, UniProt P51677); test: Calcium mobilization assay (inhibition of eotaxin-induced intracellular calcium mobilization in CCR3/HEK293 cells); format: cell-based; set-up: expressed in transfected cells; details: 1.25 µg/ml test compound; eotaxin 10 nM; CCR3/HEK293 cells (Table 2b)
Property: Ca^2+ mobilization 1.25 µg/ml (inhibition %)

CC[N+](CCCNC(=O)Nc1ccc(Cl)c(Cl)c1)(CCc1cccc(Cl)c1)CC1CCC1.[I-] (stereo not drawn) [compound 361] :: 70
CC[N+](CCCNC(=O)Nc1ccc(OC)cc1)(CCOCCOC)CCc1cccc(Cl)c1.[I-] (stereo not drawn) [Compound 438] :: 70
CC[N+](CCCNC(=O)Nc1ccc(C#N)cc1)(CCOCCOC)CCc1ccc(Cl)cc1Cl.[I-] (stereo not drawn) [compound 395] :: 69
C=C(C)C[N+](CC)(CCCNC(=O)Nc1ccc(OC)cc1)CCc1ccc(Cl)cc1.[I-] (stereo not drawn) [compound 444] :: 72
C=C(C)C[N+](CC)(CCCNC(=O)Nc1ccc(C#N)cc1)CCc1ccc(Cl)cc1Cl.[I-] (stereo not drawn) [compound 400] :: 68
CC[N+](CCCNC(=O)Nc1ccc(C#N)cc1)(CCc1cccc(Cl)c1)CC1CCC1.[I-] (stereo not drawn) [compound 397] :: 69
